- Method: NCI Yeast Anticancer Drug Screen. Data for the mec2-1 strain (AID 157)
- Test Context: S. cerevisiae mec2-1 strain, at 100.0 µM, hits give high values
This is part of a sample that, as a whole, favours compounds with a hit. Of some 79,000 tested, about 15% had one in any assay.
Reported Endpoint: growth inhibition (%)
// return numeric value only (unit: %, not printed)

// worked examples, growth inhibition included
1. CCC1(O)C(=O)OCc2c1cc1n(c2=O)Cc2cc3c(N)cccc3nc2-1 (stereo unspecified) | -35
2. COC(=O)c1ccccc1N=NNc1cccc(SC)c1 | 89
3. CCOP(=O)(OCC)/C(C#N)=C/c1cccc(Oc2ccccc2)c1 | 98
4. Cc1ccc(S(=O)(=O)Nc2cccc3cccnc23)cc1 | 60
5. COc1ccc(/C=C2\SC(=S)N(/C=C3\C(=O)N(c4ccccc4)N=C3C)C2=O)cc1OC | 80

[Q] Looking for the measured growth inhibition of "O=C(O)CNC(c1ccccc1)(c1ccccc1)c1ccccc1" , can you help?
[A] 99

[Q] Looking for the measured growth inhibition of "Cc1cc2nc3ccccc3n2c2ccccc12" , can you help?
[A] 8

[Q] Looking for the measured growth inhibition of "O=c1[nH]c2c([N+](=O)[O-])cccc2c2ccccc12" , can you help?
[A] 89

[Q] Looking for the measured growth inhibition of "CC(C)C(c1ccccc1)c1ccccc1" , can you help?
[A] 99

[Q] Looking for the measured growth inhibition of "c1cc(-c2sc(-c3ccncc3)c(-c3ccncc3)c2-c2ccncc2)ccn1" , can you help?
[A] 93

[Q] Looking for the measured growth inhibition of COc1cc2c(cc1OC)[C@@H](Nc1ccc(C#N)cc1)C1COC(=O)[C@@H]1C2c1cc(OC)c(O)c(OC)c1 (stereo partly specified) , can you help?
[A] 91
